targetEntity: Cytochrome P450 3A4 (Homo sapiens) (UniProt P08684)
Sequence (P08684 whole entry, looked up): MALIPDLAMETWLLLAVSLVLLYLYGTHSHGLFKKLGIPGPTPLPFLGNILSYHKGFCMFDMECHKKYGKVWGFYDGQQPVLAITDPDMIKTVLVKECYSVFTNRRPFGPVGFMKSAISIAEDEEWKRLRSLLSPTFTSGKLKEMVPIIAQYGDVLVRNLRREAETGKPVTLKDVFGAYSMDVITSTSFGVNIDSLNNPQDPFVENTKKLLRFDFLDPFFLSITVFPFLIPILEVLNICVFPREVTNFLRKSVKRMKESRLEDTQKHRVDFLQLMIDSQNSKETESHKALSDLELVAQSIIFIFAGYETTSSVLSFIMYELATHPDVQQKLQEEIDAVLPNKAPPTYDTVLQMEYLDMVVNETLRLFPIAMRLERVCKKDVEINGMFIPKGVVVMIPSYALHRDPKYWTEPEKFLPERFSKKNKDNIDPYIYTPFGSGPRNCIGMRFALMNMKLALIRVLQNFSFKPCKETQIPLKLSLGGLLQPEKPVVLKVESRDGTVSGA
procedureSummary: Cytochrome P450 Family 3 Subfamily A Member 4 (CYP3A4) small molecule antagonists: luciferase reporter qHTS assay (AID 1671201); also: nearly all actives have a fitted effect of over 50% in size
details: P450-Glo CYP3A4 enzyme, luciferin luminescence, 1 h; series mostly up to 115 µM
Description: National Center for Advancing Translational Sciences [NCATS] U.S. Environmental Protection Agency [EPA] National Institutes of Environmental Health Sciences [NIEHS] National Toxicology Program [NTP] U.S. Food and Drug Administration [FDA] Cytochrome P450 (CYP) enzymes are membrane-bound hemeproteins that play a key role in metabolism of drugs and xenobiotics. […] The luciferin products formed are detected with a luciferin detection reagent, and the amount of light produced is proportional to CYP activity. […]
Inconclusive results are not listed. The source made the active and inactive calls. Calls follow the shape of the dose curve; as a rule, active = well fitted inhibition curve with a large enough effect in the repeat runs; inconclusive = weak or mixed curves; inactive = no such curve, though single readings can be large or run the other way.
Response enum: TRUE for active, FALSE for inactive

// query Fill in: this test's call for c1ccc(CN(Cc2ccccc2)Cc2ccccc2)cc1 is ___
// result FALSE

Further cases:
// query Fill in: this test's call for C[C@@H](O)[C@H]1C(=O)N2C(C(=O)O)=C(S[C@@H]3CN[C@H](CNS(N)(=O)=O)C3)[C@H](C)[C@H]12 is ___
// result TRUE

// query Do the same for Cc1c(Cl)cccc1[N+](=O)[O-] please
// result FALSE

// query Do the same for O=C1c2ccccc2C(=O)C1c1ccc2cc(S(=O)(=O)O)cc(S(=O)(=O)O)c2n1 please
// result FALSE

// query Do the same for O=C(O)c1ccc2cc(O)ccc2c1 please
// result FALSE

// query Do the same for CCCCOC(=O)C(C)Oc1ccc(Oc2ccc(C(F)(F)F)cn2)cc1 (configuration not stated) please
// result FALSE

// query Do the same for COc1cc(CNC(=O)CCCC/C=C/C(C)C)ccc1O please
// result TRUE

// query Do the same for COc1ccc(/C(C)=C/C(=O)O)c(OC)c1 please
// result FALSE

// query Do the same for O=[N+]([O-])c1cccc(I)c1 please
// result FALSE

// query Do the same for CC(CN=Cc1ccccc1O)N=Cc1ccccc1O (configuration not stated) please
// result FALSE

// query Do the same for O=S(=O)(O)c1cc(Cl)c(Cl)cc1Cl please
// result FALSE

// query Do the same for CC(=O)Oc1cccc2c1C(=O)c1c(OC(C)=O)cc(C(=O)O)cc1C2=O please
// result FALSE

----------
procedureSummary: qHTS assay to identify small molecule antagonists of the thyroid receptor (TR) signaling pathway - cell viability counter screen (AID 743064); also: nearly all actives have a fitted effect of over 50% in size
details: GH3.TRE-Luc viability, CellTiter-Fluor, 24 h; series mostly up to 70.3 µM
Inconclusive results are not listed. Activity calls are given as the source filed them. Calls follow the shape of the dose curve; as a rule, active = well fitted cell-killing curve with a large enough effect in the repeat runs; inconclusive = weak or mixed curves, or effect the other way; inactive = no such curve, though single readings can be large or run the other way.
Response enum: true for active, false for inactive

// query Fill in: this test's call for CCCC(=O)OCc1ccccc1 is ___
// result false

// query Do the same for Nc1cccc2c(=O)[nH][nH]c(=O)c12 please
// result false

// query Do the same for CC(C)(C(=O)O)c1ccc(C(O)CCCN2CCC(C(O)(c3ccccc3)c3ccccc3)CC2)cc1 (configuration not stated) please
// result false

// query Do the same for CC(=O)Nc1ccccc1O please
// result false

// query Do the same for CCCCCCCCNC please
// result false

// query Do the same for O=C(OC1C[C@H]2CC[C@@H](C1)[N+]21CCCC1)C(O)(c1ccccc1)c1ccccc1 (some centres not stated) please
// result false

// query Do the same for Nc1ccc(-c2ccc(F)cc2)cc1 please
// result false

// query Do the same for Oc1ccc(CCNCCCCCCNCCc2ccccc2)cc1O please
// result true

// query Do the same for C=C[Si](OCC)(OCC)OCC please
// result false

// query Do the same for Cc1cc(SC2=C(O)C[C@@](CCc3ccc(N)cc3)(C(C)C)OC2=O)c(C(C)(C)C)cc1CO please
// result false

// query Do the same for C/C(=C(\CCO)SS/C(CCO)=C(\C)N(C=O)Cc1cnc(C)nc1N)N(C=O)Cc1cnc(C)nc1N please
// result false

// query Do the same for O=C(O)c1ccc2c(c1)nc(C(=O)NC1CCN(C3CC3)CC1)n2Cc1cc(-c2ccc(Cl)s2)on1 please
// result false

Values from PubChem BioAssay (Tox21)
